# credit: ChEMBL document CHEMBL4177762

The compounds listed here are annotated with their IC50.
- System: Plasmodium falciparum
- Test Method Notes: Antiprotozoal activity against IEF stage of Plasmodium falciparum NF54 after 48 hrs by [3H]-hypoxanthine incorporation assay
- Format: functional, organism-based
Non-standard residues stand in square brackets, D forms with d. Residues, ends and D or L forms follow the SMILES beside them. *: point of attachment. NMeF = CN[C@@H](Cc1ccccc1)C(=O)O; NMeL = CN[C@@H](CC(C)C)C(=O)O; NHPhenethyl = c1ccc(CCN*)cc1; NMeV = CN[C@H](C(=O)O)C(C)C; NMeA = CN[C@@H](C)C(=O)O

Compound | Measure Unit | IC50
CN[C@@H](CC(C)C)C(=O)N(C)[C@@H](CC(C)C)C(=O)N(C)[C@@H](CC(C)C)C(=O)N(C)[C@@H](C)C(=O)NCCc1ccccc1 (H-[NMeL][NMeL][NMeL][NMeA]-NHPhenethyl) | µg/mL | 31
CC(C)C[C@@H](NC=O)C(=O)N[C@@H]1C(=O)N[C@H](Cc2ccccc2)C(=O)N[C@H](C(C)C)C(=O)N[C@@H](Cc2ccc(O)cc2)C(=O)N[C@@H](Cc2c[nH]c3ccccc23)C(=O)O[C@@H]1C | µg/mL | 0.995
CN[C@@H](Cc1ccccc1)C(=O)N[C@H](C(=O)N(C)[C@H](C(=O)N(C)[C@H](C(=O)N(C)[C@H](C(=O)N(C)[C@@H](Cc1ccccc1)C(=O)NCCc1ccccc1)C(C)C)C(C)C)C(C)C)C(C)C (H-[NMeF]V[NMeV][NMeV][NMeV][NMeF]-NHPhenethyl) | µg/mL | 0.14
CN[C@@H](Cc1ccccc1)C(=O)N(C)[C@@H](Cc1ccccc1)C(=O)N(C)[C@@H](Cc1ccccc1)C(=O)N(C)[C@@H](Cc1ccccc1)C(=O)N(C)[C@@H](Cc1ccccc1)C(=O)NCCc1ccccc1 (H-[NMeF][NMeF][NMeF][NMeF][NMeF]-NHPhenethyl) | µg/mL | 0.2

---

- Tested on: Trypanosoma brucei rhodesiense
- Test Method Notes: Antiprotozoal activity against trypomastigote stage of Trypanosoma brucei rhodesiense STIB900 after 72 hrs by Alamar Blue assay
- Format: functional, organism-based
Calls of active or inactive are those of the source. The rule behind the calls is not given here. Non-standard residues stand in square brackets, D forms with d. Residues, ends and D or L forms follow the SMILES beside them. *: point of attachment. NMeF = CN[C@@H](Cc1ccccc1)C(=O)O; NHPhenethyl = c1ccc(CCN*)cc1; NMeV = CN[C@H](C(=O)O)C(C)C

Molecule | Activity
CN[C@@H](Cc1ccccc1)C(=O)N(C)[C@@H](Cc1ccccc1)C(=O)N(C)[C@@H](Cc1ccccc1)C(=O)N(C)[C@@H](Cc1ccccc1)C(=O)N(C)[C@@H](Cc1ccccc1)C(=O)NCCc1ccccc1 (H-[NMeF][NMeF][NMeF][NMeF][NMeF]-NHPhenethyl) | Active
CN[C@H](C(=O)N(C)[C@H](C(=O)N(C)[C@H](C(=O)N(C)[C@H](C(=O)N(C)[C@H](C(=O)N(C)[C@H](C(=O)N(C)[C@H](C(=O)NCCc1ccccc1)C(C)C)C(C)C)C(C)C)C(C)C)C(C)C)C(C)C)C(C)C (H-[NMeV][NMeV][NMeV][NMeV][NMeV][NMeV][NMeV]-NHPhenethyl) | Active
